assay: NCI Yeast Anticancer Drug Screen. Data for the sgs1 mgt1 strain (AID 161);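 also: 0% = growth of cultures given vehicle only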; conditions: S. cerevisiae sgs1 mgt1 strain, at 50.0 µM, active compounds read high
Compounds without any hit were thinned out: in the full panel of roughly 79,000, 15% have a hit.
attribute.measured: growth inhibition (%)
One number for each entry, in %.

Example results:
INSERT INTO assay_data (compound, unit_spec, test_result) VALUES
  ('CN(C)CCCNc1c(C#N)[n+]([O-])c2cc(Cl)ccc2[n+]1[O-]', '%', 61.9),
  ('C1=Nc2ccccc2C=Nc2ccccc2C=Nc2ccccc2C=Nc2ccccc21.[Cl-].[Pt+2]', '%', 76.8);

For the 2 compounds below, give their growth inhibition values.
1. CC(=O)NC1CCCCC1CC1CCCCC1 (stereo unspecified)
2. O=C(c1ccc(O)cc1)c1ccccc1O

[35.8, 44.4]

Each of the following entries comes with a recorded value; kindly state growth inhibition for each.
1. CCOC(=O)C1(Br)CCN(S(=O)(=O)c2ccc(C)cc2)c2ccccc2C1=O (stereo unspecified)
2. CN(C)CCC(=O)N1C/C(=C\c2ccc(Cl)c(Cl)c2)C(=O)/C(=C/c2ccc(Cl)c(Cl)c2)C1

1. 97.8
2. 88.2

###

assay: NCI Yeast Anticancer Drug Screen. Data for the mec2-1 strain (AID 157); conditions: S. cerevisiae mec2-1 strain, at 50.0 µM (retest, dose inferred, filed as 5.0), active compounds read high
This is part of a sample that, as a whole, favours compounds with a hit. Of some 79,000 tested, about 15% had one in any assay.
Task for the reader: assign each of the following molecules its reported growth inhibition.
One number for each entry, in %.

For every record below, what is its growth inhibition?
1. Cc1cnc(Sc2c([N+](=O)[O-])ncn2C)nc1
2. COC(=O)C(=Cc1c[nH]c2ccccc12)C(=O)OC
3. CCNC(=O)COc1ccc(Cl)cc1Cl
4. Cc1ccc(C2CC(c3cccc([N+](=O)[O-])c3)=Nc3ccccc3S2)cc1 (stereo unspecified)

1: 7; 2: 2; 3: 2; 4: 31

Fill in growth inhibition for each of the 7 molecules listed.
1. CC1(C)N([O-])[N+](=O)C1(Br)c1ccccc1 (stereo unspecified)
2. COc1cc(O)c2c(c1)C(O)C(O)CC1OC1C(=O)/C=C/CC(C)OC2=O (stereo unspecified)
3. S=C(Nc1ccccc1)N(Cc1ccccc1)c1ccccc1
4. O=C(O)c1nc2cc(C(F)(F)F)ccc2nc1Nc1ccc(Cl)c(Cl)c1
5. Cc1cccc(NC(=O)C(=O)C(C2OC(=O)c3ccccc32)[N+](=O)[O-])c1C (stereo unspecified)
6. O=c1[nH]c2ccccc2c2oc3ccccc3c12
7. CC(=O)Oc1ccc(N2C(=O)C=CC2=O)cc1

1. 100
2. 99
3. 57
4. 90
5. 82
6. 71
7. 100

###

assay: NCI Yeast Anticancer Drug Screen. Data for the cln2 rad14 strain (AID 165);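 also: 0% = growth equal to vehicle treated cultures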; settings: S. cerevisiae cln2 rad14 strain, at 50.0 µM, active compounds read high
The panel holds about 79,000 compounds, 15% with a hit somewhere; the sample as a whole holds those more often.
Classify on growth inhibition using lower band (below 30%), central band (30% to below 90%), upper band (90% or more)

Use these answered entries as a reference point.
INSERT INTO results (molecule, class) VALUES
  ('Oc1ccc(C2SC(c3ccc(O)cc3)SC(c3ccc(O)cc3)S2)cc1 (centres undefined)', 'upper band'),
  ('OC12C3C4CC5C(C4[C@@H]1Br)C2[C@@](O)(c1c(F)c(F)c(F)c(F)c1F)C53 (some centres undefined)', 'lower band'),
  ('COc1ccc(NC(=O)CC(=O)n2nc(-c3ccccc3)c(N=Nc3ccc(C)cc3)c2-c2ccccc2)cc1', 'lower band'),
  ('CN1CCCC1c1cccc(Br)c1 (centres undefined)', 'lower band'),
  ('O=C(/C=C\c1ccc([N+](=O)[O-])o1)/C=C/c1ccc([N+](=O)[O-])o1', 'upper band');

Field: class (growth inhibition) — entry: "O=[N+]([O-])c1ccc2c(c1)[nH]c1ccccc12"
central band

Sort "CC(=O)NNc1nc(C)c(C(=O)NNC(=O)C(=O)Nc2ccc(Cl)cc2Cl)s1" into one of the categories.
lower band

###

test: NCI Yeast Anticancer Drug Screen. Data for the mlh1 rad18 strain (AID 175); settings: S. cerevisiae mlh1 rad18 strain growth inhibition; at 50.0 µM
Compounds without any hit were thinned out: in the full panel of roughly 79,000, 15% have a hit. The source made the active and inactive calls. Rule as the data show it: active = growth inhibition above about 70%; inactive = the rest.
Answer with one of the outcomes T (active), F (inactive)

INSERT INTO assay_data (molecule, class) VALUES
  ('O=C(c1ccccc1)C(C(=O)c1ccccc1)c1ccc2ccccc2n1', 'F');

Just curious, what result did "Cc1c2cnccc2c(C)c2c1sc1ccccc12" get here?
T

###

assay: NCI Yeast Anticancer Drug Screen. Data for the mlh1 rad18 strain (AID 175); settings: S. cerevisiae mlh1 rad18 strain growth inhibition; at 50.0 µM
About 79,000 compounds went through this panel and 15% of them were active in at least one assay; those are over-represented in the sample as a whole. The source made the active and inactive calls. No stated cut-off is given here; in the data, active means growth inhibition above about 70%; inactive means the rest.
Assign a class; possible classes are 1 (active), 0 (inactive)

Please review the entries below; each comes with its answer.
INSERT INTO measurements (compound, class) VALUES
  ('Nc1ccc2nc(Nc3ccc(Cl)c(Cl)c3)cnc2c1', 1),
  ('COc1ccc(C2=C(Cl)C(=O)N(c3ccccc3Cl)C(=O)C2(Cl)Cl)cc1', 1),
  ('Cc1ccc(S(=O)(=O)C(=S)Sc2ccccc2)cc1', 1),
  ('CCN(CC)c1c(C(=O)/C=C/c2ccc(Cl)cc2)c(-c2ccccc2)nn(C)c1=O', 1),
  ('Oc1ccc(N=Nc2ccccc2)c(O)c1.Oc1ccc(N=Nc2ccccc2)c(O)c1.[Cu]', 1);

Assay outcome for "CCn1c2ccccc2c2ccc(N=Nc3ccc(N(C)C)cc3)cc21" : what was it?
1

Call for entry "CCCCN=C(c1ccc(O)cc1)c1ccc(OC)cc1O" :
0

Could you kindly confirm the outcome this assay logged for CC(C)c1ccc(O)c(O)c(=O)c1 (tested in a mixture with another compound) ?
1

What did the test return for "N#CSCCSCc1ccc(Cl)cc1" ?
1

Recorded test outcome, item O=C1c2ccccc2C(=O)C2OC12 (stereo unspecified)
1

For this compound, state the assay outcome: "Nc1nc(-c2cc3cc(Cl)ccc3o2)cs1"
0

###

Provide the reported growth inhibition of each item.
assay: NCI Yeast Anticancer Drug Screen. Data for the cln2 rad14 strain (AID 165);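 also: 0% = growth equal to vehicle treated cultures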; settings: S. cerevisiae cln2 rad14 strain, at 50.0 µM (retest, dose inferred, filed as 5.0), active compounds read high
Compounds without any hit were thinned out: in the full panel of roughly 79,000, 15% have a hit.
Numbers only, in %.

Reference set, count: 4
INSERT INTO assay_data (compound, attribute_measured, unit_spec, test_result) VALUES
  ('Cc1cc[n+](C2CCC3(C)C(=CCC4C3CCC3(C)C(C(C)CCCC(C)C)CCC43)C2)cc1 (stereo unspecified)', 'growth inhibition', '%', 97),
  ('O=C1C=C(c2cccc(-c3ccccc3)c2)CCC1', 'growth inhibition', '%', 92),
  ('CSc1c(S(C)=O)c2ccccc2n1C (stereo unspecified)', 'growth inhibition', '%', 17),
  ('COC(=O)C1(c2ccc(N(C)C)cc2OC)CCCN(C(=O)Oc2ccccc2[N+](=O)[O-])CCc2c1[nH]c1ccccc21 (stereo unspecified)', 'growth inhibition', '%', 52);

Respectfully, I request growth inhibition for each entry included below.
1. CCCCC(CC)COP(=O)(OCC(CC)CCCC)OCC(CC)CCCC (stereo unspecified)
2. COc1ccc(CSC(=S)Nc2ccc(Cl)c(C(F)(F)F)c2)cc1
3. CC(C)OC(=O)CCCCCC1CCCCC1
4. CC(=O)c1nc2ccccc2n1C(C)C(=O)c1ccccc1 (stereo unspecified)

1: -3; 2: 38; 3: 6; 4: 24

Each compound below has a recorded value; state its growth inhibition.
1. COc1ccc(C2=C(Cl)C(=O)N(c3ccc(O)cc3)C(=O)C2(Cl)Cl)cc1
2. COc1ccc(C2COc3c(ccc(O)c3O)C2)cc1OC (stereo unspecified)
3. CCCCCN(CCCCC)CC(C)(C)C(O)c1ccc(OC)c2ccccc12 (stereo unspecified)

1. 98
2. 41
3. 27

###

experiment: NCI Yeast Anticancer Drug Screen. Data for the rad50 strain (AID 155);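 also: 0% = growth of vehicle-only cultures of the same strain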; details: S. cerevisiae rad50 strain growth inhibition; at 50.0 µM
The panel holds about 79,000 compounds, 15% with a hit somewhere; the sample as a whole holds those more often. The source made the active and inactive calls. Rule as the data show it: active = growth inhibition above about 70%; inactive = the rest.
Field 'call' accepts active, inactive

Previously resolved entries follow.
INSERT INTO measurements (compound, class) VALUES
  ('Clc1ccc(CNc2ccc(Cl)c(Cl)c2)cc1', 'active'),
  ('Cc1ccc(OCC2CO2)c(Br)c1 (stereo not drawn)', 'active');

Status in this test for "c1ccc(-c2ccc(-c3ccc(C4=NCCN4)cc3)o2)cc1" ?
active

Query: recorded result category for "Cc1cc([N+](=O)[O-])cc(C)c1OC(=O)Nc1c(Cl)cccc1Cl" in this test
inactive
